These entries and their values trace back to ChEMBL document CHEMBL1909046.

EXPERIMENTAL_SYSTEM: UniProtKB P08912
Sequence (P08912 whole entry): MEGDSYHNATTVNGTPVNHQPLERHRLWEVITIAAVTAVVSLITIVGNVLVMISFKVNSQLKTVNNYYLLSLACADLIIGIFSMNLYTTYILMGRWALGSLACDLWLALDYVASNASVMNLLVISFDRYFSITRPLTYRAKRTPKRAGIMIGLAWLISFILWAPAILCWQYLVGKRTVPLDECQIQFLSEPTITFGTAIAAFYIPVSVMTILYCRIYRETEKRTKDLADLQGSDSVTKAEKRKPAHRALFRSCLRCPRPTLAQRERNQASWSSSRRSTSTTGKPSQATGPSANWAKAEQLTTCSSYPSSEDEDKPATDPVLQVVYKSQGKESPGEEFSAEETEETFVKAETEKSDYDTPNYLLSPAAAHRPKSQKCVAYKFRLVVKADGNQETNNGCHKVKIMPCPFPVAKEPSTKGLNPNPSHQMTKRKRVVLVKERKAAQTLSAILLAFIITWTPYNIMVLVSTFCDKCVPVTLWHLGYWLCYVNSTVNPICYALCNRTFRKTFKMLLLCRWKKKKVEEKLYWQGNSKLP
Format: cell membranes, CHO-K1, Membrane
RECORDED_CONDITIONS: cho-k1; also: in other assays of this panel Not Active means under 50% inhibition at 10 µM
MEASUREMENT_NAME: IC50

1. CC#C[C@]1(O)CC[C@H]2[C@@H]3CCC4=CC(=O)CCC4=C3[C@@H](c3ccc(N(C)C)cc3)C[C@@]21C [MIFEPRISTONE]    Not Active
2. C1CCN2C[C@@H]3C[C@@H](CN4CCCC[C@@H]34)[C@H]2C1 [SPARTEINE]    Not Active
3. O=C1CC[C@@]2(O)[C@H]3Cc4ccc(O)c5c4[C@@]2(CCN3CC2CC2)[C@H]1O5 [NALTREXONE]    Not Active
4. O=C(c1ccccc1)c1ccc2n1CCC2C(=O)O (stereo unspecified) [KETOROLAC]    Not Active
5. C=C(Cl)Cl [1,1-DICHLOROETHENE]    Not Active
6. O=C(OC[C@H]1O[C@@H](OC(=O)c2cc(O)c(O)c(OC(=O)c3cc(O)c(O)c(O)c3)c2)[C@H](OC(=O)c2cc(O)c(O)c(OC(=O)c3cc(O)c(O)c(O)c3)c2)[C@@H](OC(=O)c2cc(O)c(O)c(OC(=O)c3cc(O)c(O)c(O)c3)c2)[C@@H]1OC(=O)c1cc(O)c(O)c(OC(=O)c2cc(O)c(O)c(O)c2)c1)c1cc(O)c(O)c(OC(=O)c2cc(O)c(O)c(O)c2)c1 [TANNIC ACID]    Not Active
